Each record here notes measured Ratio.
Tested on: Rattus norvegicus
Assay: Effect on intestinal calcium transport in weanling Sprague-Dawley rat assessed as increase in ratio of serosal to mucosal calcium level at 87 pmol/day, ip administered as 4 consecutive daily doses measured 24 hrs after last dose
Type: functional

# Entry smiles, Assayed system, Ratio
data = [
    ("C=C1CC/C(=C/C=C2\\CCC[C@]3(C)[C@@H]([C@H](C)CCCC(C)(C)O)CC[C@@H]23)C(=C)[C@H]1O", "Rattus norvegicus", 8.5),
    ("C=C1CC/C(=C/C=C2\\CCC[C@]3(C)[C@@H]([C@@H](C)CCCC(C)(C)O)CC[C@@H]23)C(=C)[C@H]1O", "Rattus norvegicus", 10.2),
    ("C=C1CC(=C)[C@H](O)C/C1=C/C=C1\\CCC[C@]2(C)[C@@H]([C@@H](C)CCCC(C)(C)O)CC[C@@H]12", "Rattus norvegicus", 9.8),
    ("C=C1CC(=C)[C@H](O)C/C1=C/C=C1\\CCC[C@]2(C)[C@@H]([C@H](C)CCCC(C)(C)O)CC[C@@H]12", "Rattus norvegicus", 5.7),
]
